Assay: self-splicing fitness, log relative to wild type (ln ratio); higher = more splicing; Tetrahymena group I intron in knt gene, E. coli kanamycin selection, DiMSum; sequences stand for … in CUCUCU…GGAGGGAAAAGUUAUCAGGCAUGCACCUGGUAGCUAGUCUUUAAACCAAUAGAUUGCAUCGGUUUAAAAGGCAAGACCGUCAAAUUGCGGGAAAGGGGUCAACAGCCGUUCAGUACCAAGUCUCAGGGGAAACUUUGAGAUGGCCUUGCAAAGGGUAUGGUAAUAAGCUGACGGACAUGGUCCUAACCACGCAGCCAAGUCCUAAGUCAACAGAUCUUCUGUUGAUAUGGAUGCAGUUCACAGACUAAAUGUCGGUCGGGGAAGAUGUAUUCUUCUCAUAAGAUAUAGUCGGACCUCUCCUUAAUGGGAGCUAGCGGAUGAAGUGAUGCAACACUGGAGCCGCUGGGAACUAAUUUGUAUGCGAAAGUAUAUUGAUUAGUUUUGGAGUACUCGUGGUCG;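 note: selection with 25 µg/mL kanamycin versus none on LB agar overnight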
Details: 37 °C
Parameter: self-splicing fitness (ln). Scope: all listed entries.
Give the figure by itself; no unit, no explanation.

Guide cases for self-splicing fitness (ln), answers given:
> print(dat)
        record.sequence   value
1  GCAAAGCAAUAUUACGAAUA  -0.704
2  GGUAAGCAAUAUUACGUCAU   0.713
3  CGUUAGCAAUAUUACGUCGU   -1.81

Moving on to the next sequence.
For the sequence `GGAAAGCAAUAUUACGAUAC` , what self-splicing fitness (ln) is on record?
-0.511

----------
Assay: self-splicing fitness, log relative to wild type (ln ratio); higher = more splicing; Tetrahymena group I intron in knt gene, E. coli kanamycin selection, DiMSum; sequences stand for … in CUCUCU…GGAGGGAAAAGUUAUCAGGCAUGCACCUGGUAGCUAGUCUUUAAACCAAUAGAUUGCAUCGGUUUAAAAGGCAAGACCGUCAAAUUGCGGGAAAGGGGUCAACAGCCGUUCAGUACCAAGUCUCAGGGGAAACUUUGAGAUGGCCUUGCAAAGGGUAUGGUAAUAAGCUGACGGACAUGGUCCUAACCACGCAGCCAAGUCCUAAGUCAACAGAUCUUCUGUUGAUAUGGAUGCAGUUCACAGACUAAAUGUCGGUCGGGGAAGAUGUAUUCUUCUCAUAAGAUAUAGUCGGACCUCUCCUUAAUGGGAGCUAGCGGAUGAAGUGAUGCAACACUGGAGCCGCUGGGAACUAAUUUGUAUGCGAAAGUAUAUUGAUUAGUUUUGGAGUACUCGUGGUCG
Conditions: 37 °C
Parameter: self-splicing fitness (ln). Scope: all listed entries.
Give the figure by itself; no unit, no explanation.

For the sequence `AUUCAGCAAUAUUACGACUC` , what self-splicing fitness (ln) is on record?
0.11

For the sequence `CAUCAGCAAUAUUACGUGUA` , what self-splicing fitness (ln) is on record?
-0.43

For the sequence `UUGUAGCAAUAUUACGACGC` , what self-splicing fitness (ln) is on record?
-0.663

For the sequence `UGGCAGCAAUAUUACGACCU` , what self-splicing fitness (ln) is on record?
0.0625

For the sequence `UCACAGCAAUAUUACGCCCG` , what self-splicing fitness (ln) is on record?
-0.555

----------
Parameter: self-splicing fitness (ln). Scope: all listed entries.
Experiment: self-splicing fitness, log relative to wild type (ln ratio); higher = more splicing; Tetrahymena group I intron in knt gene, E. coli kanamycin selection, DiMSum; sequences stand for … in CUCUCU…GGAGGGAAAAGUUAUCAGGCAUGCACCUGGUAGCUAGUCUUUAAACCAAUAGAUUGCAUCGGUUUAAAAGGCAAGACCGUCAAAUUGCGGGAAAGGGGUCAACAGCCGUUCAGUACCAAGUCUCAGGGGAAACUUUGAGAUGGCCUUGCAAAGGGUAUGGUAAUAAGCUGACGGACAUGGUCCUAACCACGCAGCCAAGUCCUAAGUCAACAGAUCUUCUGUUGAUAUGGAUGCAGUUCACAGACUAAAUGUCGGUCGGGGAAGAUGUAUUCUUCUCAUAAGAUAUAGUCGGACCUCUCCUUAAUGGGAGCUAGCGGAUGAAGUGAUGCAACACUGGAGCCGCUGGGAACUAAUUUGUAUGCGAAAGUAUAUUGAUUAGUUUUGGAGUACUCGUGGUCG
Conditions: 37 °C
Give the figure by itself; no unit, no explanation.

Guide cases for self-splicing fitness (ln), answers given:
> print(dat)
        record.sequence               property.name  value
1  GCAAAGCAAUAUUACGGGGA  self-splicing fitness (ln)  -1.99
2  AAUAAGCAAUAUUACGACGG  self-splicing fitness (ln)  -1.34
3  GCUUAGCAAUAUUACGAUAU  self-splicing fitness (ln)  -0.39
4  ACCGAGCAAUAUUACGAGCC  self-splicing fitness (ln)  -3.23
5  AUCCAGCAAUAUUACGACUG  self-splicing fitness (ln)  -2.95

For the sequence `AGGAAGCAAUAUUACGUGCU` , what self-splicing fitness (ln) is on record?
-0.868

For the sequence `ACUGAGCAAUAUUACGAUAU` , what self-splicing fitness (ln) is on record?
-2.8

For the sequence `AUCGAGCAAUAUUACGUGAG` , what self-splicing fitness (ln) is on record?
-1.53
